The values you see were collected from patent US6896895B2.

For each record, write down the corresponding Shanks Color Hue h*ab % of Controls.
tested on: skin and shanks of broilers; experiment: Reflectance colorimetry and visual classification of skin and shanks of broilers; assay type: in vivo, broiler chickens (Ross 308, Ross 508); settings: dry carcasses, average over doses, Table 6
Answers are plain numbers, in %.

Field: Shanks Color Hue h*ab % of Controls. Fill in for each record below.
1. CCC(CC)COC(=O)C(C)=CC=CC(C)=CC=CC=C(C)C=CC=C(C)C=CC1=C(C)CCCC1(C)C [(9), 2-ethyl-1-butyl beta-apo-8′-carotenoate]
2. CCC(C)OC(=O)C(C)=CC=CC(C)=CC=CC=C(C)C=CC=C(C)C=CC1=C(C)CCCC1(C)C (stereo not drawn) [(5), sec. butyl beta-apo-8′-carotenoate]
3. CC(C=CC=C(C)C=CC1=C(C)CCCC1(C)C)=CC=CC=C(C)C=CC=C(C)C(=O)OCCC(C)C [(6), isoamyl beta-apo-8′-carotenoate]
4. CC(C=CC=C(C)C=CC1=C(C)CCCC1(C)C)=CC=CC=C(C)C=CC=C(C)C(=O)OCC(C)C [(4), isobutyl beta-apo-8′-carotenoate]
5. CC(C=CC=C(C)C=CC1=C(C)CCCC1(C)C)=CC=CC=C(C)C=CC=C(C)C(=O)OCC(C)(C)C

1: 101; 2: 101; 3: 101; 4: 105; 5: 101

Can you share its Shanks Color Hue h*ab % of Controls? I mean this molecule: CCC(C)COC(=O)C(C)=CC=CC(C)=CC=CC=C(C)C=CC=C(C)C=CC1=C(C)CCCC1(C)C (stereo not drawn) [(7), 2-methyl-butyl beta-apo-8′-carotenoate]
101
